- Test Method Notes: Volume of distribution at steady state in Wistar rat at 2 mg/kg, iv
- Assay type: ADME, organism-based
- Settings: in vivo, read-out: Vdss
Property Label: Vd (L/kg)

A. CCc1ccc([C@@H]2c3[nH]c4ccccc4c(=O)c3CN2c2ncc(-c3ccccn3)cn2)o1
B. CCc1ccc([C@@H]2c3[nH]c4ccccc4c(=O)c3CN2c2ncc(-c3ccccn3)cn2)s1
// max by Vd over [ A , B ] Response format: the label of the selected entry.
A

---

- Test Method Notes: Clearance in Wistar rat at 15 mg/kg, po
- Type: ADME, organism-based
- Settings: in vivo
Property Label: CL/F (mL/min/kg)
Reply with just the number (in mL/min/kg).

Name the recorded CL/F of the compound listed here: `CCc1ccc([C@@H]2c3[nH]c4ccccc4c(=O)c3CN2c2ncc(-c3ccccn3)cn2)o1`
550

Values from ChEMBL document CHEMBL4196066
